Tested on: SW872
Experiment: relative viability vs DMSO control (72 h) (fraction); higher = more viable cells
Conditions: 0.00152 µM
ENDPOINT NAME: relative viability
Keep it simple and answer with nothing but the number.

The following molecules have reported results that may help.
• N#CCNC(=O)c1ccc(-c2ccnc(Nc3ccc(N4CCOCC4)cc3)n2)cc1 [Momelotinib] = 1.07
• O=C(Nc1ccc(OC(F)(F)Cl)cc1)c1cnc(N2CC[C@@H](O)C2)c(-c2cc[nH]n2)c1 [Asciminib] = 0.939
• Cc1ccc(Nc2nccc(N(C)c3ccc4c(C)n(C)nc4c3)n2)cc1S(N)(=O)=O [Pazopanib] = 0.988

The measured relative viability associated with Clc1ccc(Nc2nnc(Cc3ccncc3)c3ccccc23)cc1 [Vatalanib] reads 1.02

// sample Cc1cc2cc(Oc3ccnc(Nc4cccc(CS(=O)(=O)NCCN(C)C)c4)n3)ccc2[nH]1 [Sulfatinib] , its relative viability was 1.02

# molecule COc1cc(OC)c(/C=C/S(=O)(=O)Cc2ccc(OC)c(NCC(=O)O)c2)c(OC)c1 [Rigosertib] ; its relative viability = 1.05

So for CNC(=O)c1nnc(NC(=O)C2CC2)cc1Nc1cccc(-c2ncn(C)n2)c1OC , the logged relative viability turned out to be 0.995

====

Tested on: SYO-1
Experiment: relative viability vs DMSO control (72 h) (fraction); higher = more viable cells
Conditions: 1.111 µM
ENDPOINT NAME: relative viability
No unit in the answer, please; the number alone is enough.

Worked examples, 6 molecules total:
* N#CC1(c2ccc(NC(=O)c3cccnc3NCc3ccncc3)cc2)CCCC1 [Apatinib] | 0.747
* CCC(=O)N1CC[C@H](Nc2ncnc3c2CN(c2cnc(OC)c(C(F)(F)F)c2)CC3)C1 [Leniolisib] | 0.875
* CN1CCN(c2ccc(C(=O)Nc3n[nH]c4ccc(Cc5cc(F)cc(F)c5)cc34)c(NC3CCOCC3)c2)CC1 [Entrectinib] | 0.765
* CC#CC(=O)N1CCC[C@H]1c1nc(-c2ccc(C(=O)Nc3ccccn3)cc2)c2c(N)nccn12 [Acalabrutinib] | 0.928
* CC1(COc2ccc3c(c2)ncn3-c2ccc3cccc(N4CCC(N)CC4)c3n2)COC1 [Crenolanib] | 0.659
* CC(C)Oc1ccc(-c2nn([C@@H](C)c3oc4ccc(F)cc4c(=O)c3-c3cccc(F)c3)c3ncnc(N)c23)cc1F [Umbralisib] | 0.975

Consider now this further molecule.
Hey, SYO-1 data for CNC(=O)c1nnc(NC(=O)C2CC2)cc1Nc1cccc(-c2ncn(C)n2)c1OC : relative viability came out at 0.928

====

Recorded relative viability values for a group of compounds are listed next.
Test system: KHOS-240S
Assay: relative viability vs DMSO control (72 h) (fraction); higher = more viable cells
Conditions: 1.111 µM
Returns: the value as a bare number; no unit string appended.

* O=c1sn(-c2cccc3ccccc23)c(=O)n1Cc1ccccc1 [Tideglusib] | 1.03
* CN1CCN(c2ccc(C(=O)Nc3n[nH]c4ccc(Cc5cc(F)cc(F)c5)cc34)c(NC3CCOCC3)c2)CC1 [Entrectinib] | 0.939
* N#CC1(c2ccc(NC(=O)c3cccnc3NCc3ccncc3)cc2)CCCC1 [Apatinib] | 0.97
* CC(C)(C)c1nc(-c2cccc(NS(=O)(=O)c3c(F)cccc3F)c2F)c(-c2ccnc(N)n2)s1 [Dabrafenib] | 0.975
* CNC(=O)c1ccccc1Sc1ccc2c(/C=C/c3ccccn3)n[nH]c2c1 [Axitinib] | 0.791
* Cn1ncnc1[C@H]1c2n[nH]c(=O)c3cc(F)cc(c23)N[C@@H]1c1ccc(F)cc1 [Talazoparib] | 0.677

// moving on: another record for relative viability
// CC1(C)CC=C(c2nc(C3CC(C)(C)OC(C)(C)C3)ccc2NC(=O)c2nc(C#N)c[nH]2)CC1 [Edicotinib] : relative viability value = 1.12

====

Test system: VA-ES-BJ
Test: standardised AUC of viability dose-response curve (72 h) (fraction (0-1)); higher = less growth inhibition (more resistant)
Readings of standardised AUC for the listed molecules
Lab note: record the figure alone, no unit after it.

Reference set (3 entries):
• CNC(=O)c1nnc(NC(=O)C2CC2)cc1Nc1cccc(-c2ncn(C)n2)c1OC = 0.986
• Cc1cc2c(F)c(Oc3ncnn4cc(OC[C@@H](C)O)c(C)c34)ccc2[nH]1 [BRIVANIB] = 1
• C[C@]12O[C@H](C[C@]1(O)CO)n1c3ccccc3c3c4c(c5c6ccccc6n2c5c31)CNC4=O [LESTAURTINIB] = 0.667

Next:
standardised AUC reading for CCc1cnn2c(NCc3ccc[n+]([O-])c3)cc(N3CCCC[C@H]3CCO)nc12 [DINACICLIB] : 0.498

====

System: RD
Experiment: relative viability vs DMSO control (72 h) (fraction); higher = more viable cells
Details: 0.01372 µM
ENDPOINT NAME: relative viability
Number, no unit, nothing else.

- O=c1sn(-c2cccc3ccccc23)c(=O)n1Cc1ccccc1: 1.14

Let me check: CCN(CC)CCNC(=O)c1c(C)[nH]c(/C=C2\C(=O)Nc3ccc(F)cc32)c1C , system RD, measured relative viability is 1.12

RD assay, compound CN1CCN(c2ccc(C(=O)Nc3n[nH]c4ccc(Cc5cc(F)cc(F)c5)cc34)c(NC3CCOCC3)c2)CC1 , recorded relative viability = 1.11

GET /values?item= CN1CC[C@@H](NC(=O)Nc2ccc(C#N)cc2)C[C@@H]1c1nc2ccccc2[nH]1 &system= RD returns relative viability: 1.02

# C[C@]12O[C@H](C[C@]1(O)CO)n1c3ccccc3c3c4c(c5c6ccccc6n2c5c31)CNC4=O with RD: relative viability is 1.1

====

System: SW982
Assay: relative viability vs DMSO control (72 h) (fraction); higher = more viable cells
Conditions: 3.333 µM
ENDPOINT NAME: relative viability

- CC1(C)CC=C(c2nc(C3CC(C)(C)OC(C)(C)C3)ccc2NC(=O)c2nc(C#N)c[nH]2)CC1: 1.07
- COC(=O)N[C@@H](C)CNc1nccc(-c2cn(C(C)C)nc2-c2cc(Cl)cc(NS(C)(=O)=O)c2F)n1: 0.327
- CCC(=O)N1CC[C@H](Nc2ncnc3c2CN(c2cnc(OC)c(C(F)(F)F)c2)CC3)C1: 0.836
- O=c1sn(-c2cccc3ccccc23)c(=O)n1Cc1ccccc1: 1.08
- CC1(COc2ccc3c(c2)ncn3-c2ccc3cccc(N4CCC(N)CC4)c3n2)COC1: 0.352
- O=C(Nc1ccc(OC(F)(F)Cl)cc1)c1cnc(N2CC[C@@H](O)C2)c(-c2cc[nH]n2)c1: 1.01
- CO[C@H]1C[C@@H]2CC[C@@H](C)[C@@](O)(O2)C(=O)C(=O)N2CCCC[C@H]2C(=O)O[C@H]([C@H](C)C[C@@H]2CC[C@@H](OCCO)[C@H](OC)C2)CC(=O)[C@H](C)/C=C(\C)[C@@H](O)[C@@H](OC)C(=O)[C@H](C)C[C@H](C)/C=C/C=C/C=C/1C: 0.599

Bench note, SW982: entry O=C(Nc1nc2cccc(-c3ccc(CN4CCS(=O)(=O)CC4)cc3)n2n1)C1CC1 , its relative viability = 1.06

====

System: G401
Assay: relative viability vs DMSO control (72 h) (fraction); higher = more viable cells
Details: 0.3704 µM
Known relative viability of a selection of compounds
Hey, just send me the number, nothing else.

- N#CCNC(=O)c1ccc(-c2ccnc(Nc3ccc(N4CCOCC4)cc3)n2)cc1 [Momelotinib]: 0.898
- COc1cc(Nc2ncc(F)c(Nc3ccc4c(n3)N(COP(=O)(O)O)C(=O)C(C)(C)O4)n2)cc(OC)c1OC [Fostamatinib]: 0.962
- O=C(Nc1ccc(OC(F)(F)Cl)cc1)c1cnc(N2CC[C@@H](O)C2)c(-c2cc[nH]n2)c1 [Asciminib]: 0.99

Below: the item to evaluate.
Field relative viability (entry CC(C)(O)CNc1nc(Nc2ccnc(C(F)(F)F)c2)nc(-c2cccc(C(F)(F)F)n2)n1 [Enasidenib] ) reads 1.02

====

relative viability overview
System: SW872
Test: relative viability vs DMSO control (72 h) (fraction); higher = more viable cells
Settings: 0.00017 µM
Reply briefly: the number, and no unit.

• Cc1cc2c(F)c(Oc3ncnn4cc(OC[C@@H](C)O)c(C)c34)ccc2[nH]1 [Brivanib] = 0.989
• Cn1cc(C2=C(c3cn(C4CCN(Cc5ccccn5)CC4)c4ccccc34)C(=O)NC2=O)c2ccccc21 [Enzastaurin] = 1.07
• COC(=O)N[C@@H](C)CNc1nccc(-c2cn(C(C)C)nc2-c2cc(Cl)cc(NS(C)(=O)=O)c2F)n1 [Encorafenib] = 0.96
• COc1cc(Nc2ncc(F)c(Nc3ccc4c(n3)N(COP(=O)(O)O)C(=O)C(C)(C)O4)n2)cc(OC)c1OC [Fostamatinib] = 1.09
• CNC(=O)c1ccccc1Sc1ccc2c(/C=C/c3ccccn3)n[nH]c2c1 [Axitinib] = 1.08

CC(C)(C)c1nc(-c2cccc(NS(=O)(=O)c3c(F)cccc3F)c2F)c(-c2ccnc(N)n2)s1 [Dabrafenib] has a reported relative viability of 1.08

Entry Cc1cccc(-c2nn3c(c2-c2ccnc4ccc(C(N)=O)cc24)CCC3)n1 [Galunisertib] — recorded relative viability = 1.05

Recorded relative viability (compound COc1cc(OC)c(/C=C/S(=O)(=O)Cc2ccc(OC)c(NCC(=O)O)c2)c(OC)c1 [Rigosertib] ): 1.04

Measured relative viability of O=C(Nc1nc2cccc(-c3ccc(CN4CCS(=O)(=O)CC4)cc3)n2n1)C1CC1 [Filgotinib] : 1.07

The value of relative viability measured for the compound CC1(C)CC=C(c2nc(C3CC(C)(C)OC(C)(C)C3)ccc2NC(=O)c2nc(C#N)c[nH]2)CC1 [Edicotinib] turned out to be 1.01

Please fill in: relative viability reported for CN1CC[C@@H](NC(=O)Nc2ccc(C#N)cc2)C[C@@H]1c1nc2ccccc2[nH]1 [Glasdegib] = 1.08
